# test-system: T1, human TL1A extracellular domain with N-terminal HIS and FLAG tag (human, UniProt O95150 72-251)
# T1 sequence: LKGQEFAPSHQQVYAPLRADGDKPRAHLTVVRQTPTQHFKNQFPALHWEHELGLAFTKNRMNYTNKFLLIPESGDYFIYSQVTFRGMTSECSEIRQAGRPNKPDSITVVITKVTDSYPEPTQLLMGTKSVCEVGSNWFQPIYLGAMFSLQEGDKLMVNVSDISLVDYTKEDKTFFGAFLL
# assay-method-text: cell-based or functional assay
Values of Antibody IC50, TL1A induced caspase potency assay in TF-1 cells greater than or equal to 5 ng/mL map to Satisfied; values below map to Not satisfied.

| binder | class-label |
| --- | --- |
| 320-584 (antibody, human IgG1, name in Kabat numbering, V domains shown, full-length human IgG1, lambda) VH: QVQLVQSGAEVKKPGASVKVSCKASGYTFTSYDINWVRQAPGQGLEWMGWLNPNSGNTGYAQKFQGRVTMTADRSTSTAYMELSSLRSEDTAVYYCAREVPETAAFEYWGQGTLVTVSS VL: QSVLTQPPSVSGAPGQRVTISCTSSSSDIGAGSGVHWYQQLPGTAPKLLIEGYYNRPSGVPDRFSGSKSGTSASLTITGLLPEDEGDYYCQSWDGTLSALFGGGTKLTVLG | Satisfied |
| 320-593 (antibody, human IgG1, name in Kabat numbering, V domains shown, full-length human IgG1, lambda) VH: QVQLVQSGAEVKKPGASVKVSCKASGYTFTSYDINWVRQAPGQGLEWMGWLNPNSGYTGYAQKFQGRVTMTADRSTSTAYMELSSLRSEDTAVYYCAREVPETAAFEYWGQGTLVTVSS VL: QSVLTQPPSVSGAPGQRVTISCTSSSSDIGAGSGVHWYQQLPGTAPKLLIEGYYNRPSGVPDRFSGSKSGTSASLTITGLLPEDEGDYYCQSWDGTLSALFGGGTKLTVLG | Not satisfied |
| 320-583 (antibody, human IgG1, name in Kabat numbering, V domains shown, full-length human IgG1, lambda) VH: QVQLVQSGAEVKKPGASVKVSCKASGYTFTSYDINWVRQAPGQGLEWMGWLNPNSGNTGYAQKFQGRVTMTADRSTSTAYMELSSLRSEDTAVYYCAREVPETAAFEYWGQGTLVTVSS VL: QSVLTQPPSVSGAPGQRVTISCTSSSSDIGAALGVHWYQQLPGTAPKLLIEGYYNRPSGVPDRFSGSKSGTSASLTITGLLPEDEGDYYCQSWDGTLSALFGGGTKLTVLG | Not satisfied |
| 320-592 (antibody, human IgG1, name in Kabat numbering, V domains shown, full-length human IgG1, lambda) VH: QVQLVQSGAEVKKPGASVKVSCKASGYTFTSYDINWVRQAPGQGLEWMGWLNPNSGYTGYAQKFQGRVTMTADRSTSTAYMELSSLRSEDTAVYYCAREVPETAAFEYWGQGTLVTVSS VL: QSVLTQPPSVSGAPGQRVTISCTSSSSDIGAALGVHWYQQLPGTAPKLLIEGYYNRPSGVPDRFSGSKSGTSASLTITGLLPEDEGDYYCQSWDGTLSALFGGGTKLTVLG | Not satisfied |
| 320-589 (antibody, human IgG1, name in Kabat numbering, V domains shown, full-length human IgG1, lambda) VH: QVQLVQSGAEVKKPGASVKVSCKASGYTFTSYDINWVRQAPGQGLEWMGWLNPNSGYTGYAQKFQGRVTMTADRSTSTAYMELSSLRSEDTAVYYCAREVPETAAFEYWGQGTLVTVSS VL: QSVLTQPPSVSGAPGQRVTISCTSSSSDIGAGSGVHWYQQLPGTAPKLLIEGYYNRPSGVPDRFSGSKSGTSASLTITGLLPEDEGDYYCQSYDGTLSALFGGGTKLTVLG | Satisfied |
| 320-590 (antibody, human IgG1, name in Kabat numbering, V domains shown, full-length human IgG1, lambda) VH: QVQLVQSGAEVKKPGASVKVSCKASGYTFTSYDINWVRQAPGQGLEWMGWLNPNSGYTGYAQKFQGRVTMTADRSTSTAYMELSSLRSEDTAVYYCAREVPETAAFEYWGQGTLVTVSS VL: QSVLTQPPSVSGAPGQRVTISCTSSSSDIGAGQGVHWYQQLPGTAPKLLIEGYYNRPSGVPDRFSGSKSGTSASLTITGLLPEDEGDYYCQSYDGTLSALFGGGTKLTVLG | Satisfied |
| 320-278 (antibody, human IgG1, V domains shown) VH: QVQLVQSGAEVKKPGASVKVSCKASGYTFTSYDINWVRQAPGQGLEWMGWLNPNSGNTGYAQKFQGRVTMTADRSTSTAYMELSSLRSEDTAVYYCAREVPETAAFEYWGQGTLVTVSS VL: QSVLTQPPSVSGAPGQRVTISCTSSSSDIGAGQGVHWYQQLPGTAPKLLIEGYYNRPSGVPDRFSGSKSGTSASLTITGLLPEDEGDYYCQSYDGTLSALFGGGTKLTVLG | Satisfied |
| 320-601 (antibody, human IgG1, name in Kabat numbering, V domains shown, full-length human IgG1, lambda) VH: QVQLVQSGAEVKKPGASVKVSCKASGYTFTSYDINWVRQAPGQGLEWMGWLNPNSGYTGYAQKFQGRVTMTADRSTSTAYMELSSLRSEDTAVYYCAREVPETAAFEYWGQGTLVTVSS VL: QSVLTQPPSVSGAPGQRVTISCTSSSSDIGAGLGVHWYQQLPGTAPKLLIEGYYNRPSGVPDRFSGSKSGTSASLTITGLLPEDEGDYYCQSFDGTLSALFGGGTKLTVLG | Not satisfied |
| 320-585 (antibody, human IgG1, name in Kabat numbering, V domains shown, full-length human IgG1, lambda) VH: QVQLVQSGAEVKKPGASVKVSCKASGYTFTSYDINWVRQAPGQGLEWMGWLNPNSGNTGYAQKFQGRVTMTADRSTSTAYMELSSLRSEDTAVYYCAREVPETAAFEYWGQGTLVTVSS VL: QSVLTQPPSVSGAPGQRVTISCTSSSSDIGAGQGVHWYQQLPGTAPKLLIEGYYNRPSGVPDRFSGSKSGTSASLTITGLLPEDEGDYYCQSWDGTLSALFGGGTKLTVLG | Not satisfied |
